The values you see were collected from the supplement of paper PMC10307832.

System: SK-MES-1
Assay: relative viability (nuclei count vs DMSO), 5 days (fraction); higher = more cells survive
Conditions: first compound 0.8 µM
Kindly supply the reported relative viability values for the records listed here.
Returns: the value as a bare number; no unit string appended.

Exercise: Please give the measured relative viability for this compound: O=c1[nH]c2ccccc2n1C1CCN(CCCC(c2ccc(F)cc2)c2ccc(F)cc2)CC1 [Pimozide] + CC1(C)CCC(c2ccc(Cl)cc2)=C(CN2CCN(c3ccc(C(=O)NS(=O)(=O)c4ccc(N[C@H](CCN5CCOCC5)CSc5ccccc5)c(S(=O)(=O)C(F)(F)F)c4)cc3)CC2)C1 [Navitoclax] (partner 0.5 µM)
Key: 1.18

Exercise: Likewise for O=c1[nH]c2ccccc2n1C1CCN(CCCC(c2ccc(F)cc2)c2ccc(F)cc2)CC1 [Pimozide] + Nc1ncn([C@H]2C[C@H](O)[C@@H](CO)O2)c(=O)n1 [Decitabine] (partner 2 µM) ?
Key: 0.355

Exercise: Try this compound next: Cc1cnc(-c2cnc(NCCNc3ccc(C#N)cn3)nc2-c2ccc(Cl)cc2Cl)[nH]1 + Nc1nc2[nH]cc(CCc3ccc(C(=O)N[C@@H](CCC(=O)O)C(=O)O)cc3)c2c(=O)[nH]1 [Pemetrexed] (partner 0.2 µM)
Key: 0.977

Exercise: Same thing, different compound: Cc1cnc(-c2cnc(NCCNc3ccc(C#N)cn3)nc2-c2ccc(Cl)cc2Cl)[nH]1 + Cc1cc(Nc2cc(N3CCN(C)CC3)nc(Sc3ccc(NC(=O)C4CC4)cc3)n2)n[nH]1 [Tozasertib] (partner 0.1 µM)
Key: 0.999

Exercise: Same again, this time with Cc1cnc(-c2cnc(NCCNc3ccc(C#N)cn3)nc2-c2ccc(Cl)cc2Cl)[nH]1 + C[C@]1(O)C[C@@H](c2nc(-c3ccc4ccc(-c5ccccc5)nc4c3)c3c(N)nccn32)C1 [Linsitinib] (partner 1 µM)
Key: 1.05

Exercise: Same read-out for O=c1[nH]c2ccccc2n1C1CCN(CCCC(c2ccc(F)cc2)c2ccc(F)cc2)CC1 [Pimozide] + CS(=O)(=O)CCNCc1ccc(-c2ccc3ncnc(Nc4ccc(OCc5cccc(F)c5)c(Cl)c4)c3c2)o1 [Lapatinib] (partner 2 µM) ?
Key: 0.451

Exercise: Consider next the compound Cc1cnc(-c2cnc(NCCNc3ccc(C#N)cn3)nc2-c2ccc(Cl)cc2Cl)[nH]1 + O=C(CCCCCCC(=O)Nc1ccccc1)NO [Vorinostat] (partner 1 µM) in the same way.
Key: 1.19

Exercise: Now try O=c1[nH]c2ccccc2n1C1CCN(CCCC(c2ccc(F)cc2)c2ccc(F)cc2)CC1 [Pimozide] + Cc1cc(Nc2cc(N3CCN(C)CC3)nc(Sc3ccc(NC(=O)C4CC4)cc3)n2)n[nH]1 [Tozasertib] (partner 0.1 µM) .
Key: 0.873

Exercise: Quick one: Cc1cnc(-c2cnc(NCCNc3ccc(C#N)cn3)nc2-c2ccc(Cl)cc2Cl)[nH]1 + COc1cc2c(Oc3ccc(NC(=O)C4(C(=O)Nc5ccc(F)cc5)CC4)cc3F)ccnc2cc1OCCCN1CCOCC1 [Foretinib] (partner 0.25 µM)
Key: 0.942
